Values from patent US20230278972A1

tested on: ragweed (common ragweed, Ambrosia artemisiifolia); assay: Test A preemergence, ragweed; assay type: in vivo; conditions: Preemergence, 500 g ai/ha; 0 to 100 scale (0 no effect, 100 complete control)
parameter: Plant response rating, Ragweed
Give bare numbers.

Solved cases (3 shown):
> print(dat)
                                   compound                           measured.target                       parameter  endpoint.value
1  Cc1cc(C)c(C2=NOC(C)(C)C2)cc1NS(=O)(=O)C(F)(F)F [Compound 206]  ragweed (common ragweed, Ambrosia artemisiifolia)  Plant response rating, Ragweed              80
2  Cc1cc(C)c(-c2cc(C(F)(F)F)nn(C)c2=O)cc1NS(=O)(=O)C(F)(F)F [Compound 71]  ragweed (common ragweed, Ambrosia artemisiifolia)  Plant response rating, Ragweed              60
3  CCn1nc(Cl)cc(-c2cc(NS(=O)(=O)C(F)(F)F)c(C)cc2C)c1=O [Compound 51]  ragweed (common ragweed, Ambrosia artemisiifolia)  Plant response rating, Ragweed              90

Hey, quick one: what's Plant response rating, Ragweed for each of these?
1. Cc1c(NS(=O)(=O)C(F)(F)F)cc(C(=O)N2CCC3(CC2)OCCCO3)c(C)c1F [Compound 129]
2. Cc1cc(Cl)c(N(S(=O)(=O)C(F)(F)F)S(=O)(=O)C(F)(F)F)cc1C1=NOC2(CCCCC2)C1 [Compound 217]
3. Cc1cc(Cl)c(NS(=O)(=O)C(F)(F)F)cc1C(=O)N1CC(C)OC(C)C1 (centres unmarked) [Compound 20]
4. Cc1cc(C)c(-c2cc(Cl)nn(C)c2=O)cc1NS(=O)(=O)C(F)(F)F [Compound 72]
5. Cc1cc(C)c(N(S(=O)(=O)C(F)(F)F)S(=O)(=O)C(F)(F)F)cc1C(=O)N(C)CC1CC1 [Compound 169]

[90, 90, 100, 90, 80]

* * *

tested on: Foxtail, Giant (giant foxtail, Setaria faberi); assay: Test A postemergence, Foxtail, Giant; type: in vivo; settings: Postemergence, 500 g ai/ha; visual injury vs untreated controls after approx. 10 days; 0 to 100 scale (0 no effect, 100 complete control)
Please respond with reported Foxtail, Giant plant response rating for every item in the list.

> print(dat)
                                   compound  endpoint.value
1  Cc1cc(F)c(-c2ccnn(C)c2=O)cc1NS(=O)(=O)C(F)(F)F [Compound 63]              90

Hey, quick one: what's Foxtail, Giant plant response rating for each of these?
1. Cc1c(NS(=O)(=O)C(F)(F)F)cc(C(=O)N2CC(C)OC(C)C2)c(C)c1F (centres unmarked) [Compound 116]
2. Cc1cc(C)c(C(=O)N2CCC3(CC2)OCCCO3)cc1NS(=O)(=O)C(F)(F)F [Compound 194]
3. Cc1cc(C)c(N(S(=O)(=O)C(F)(F)F)S(=O)(=O)C(F)(F)F)cc1-c1cc(Br)nn(C)c1=O [Compound 67]
4. CCn1nccc(-c2cc(NS(=O)(=O)C(F)(F)F)c(C)cc2F)c1=O [Compound 55]
5. Cc1cc(Cl)c(C2=NOC(C)(C)C2)cc1N(S(=O)(=O)C(F)(F)F)S(=O)(=O)C(F)(F)F [Compound 184]
6. Cc1cc(C#N)c(C(=O)N(C)C)cc1NS(=O)(=O)C(F)(F)F [Compound 134]
7. Cc1cc(C#N)c(C(=O)N2CCCCC2)cc1NS(=O)(=O)C(F)(F)F [Compound 126]

1. 80
2. 80
3. 70
4. 90
5. 0
6. 10
7. 0
